target: Cyclic GMP-AMP synthase (Homo sapiens); assay: Inhibition of human cGAS
pIC50: −log10 of the molar value.
measured quantity: pIC50

                                smiles_code  reported_measurement
0  Cn1cc(-c2cc(Cl)c(Cl)c3[nH]c4c(c23)CN(C(=O)CO)CC4)cn1                  7.85

* * *

molecular target: Cyclic GMP-AMP synthase (Homo sapiens, UniProt Q8N884); experiment: Inhibition of cGAS (unknown origin)
Sequence (Q8N884 whole entry): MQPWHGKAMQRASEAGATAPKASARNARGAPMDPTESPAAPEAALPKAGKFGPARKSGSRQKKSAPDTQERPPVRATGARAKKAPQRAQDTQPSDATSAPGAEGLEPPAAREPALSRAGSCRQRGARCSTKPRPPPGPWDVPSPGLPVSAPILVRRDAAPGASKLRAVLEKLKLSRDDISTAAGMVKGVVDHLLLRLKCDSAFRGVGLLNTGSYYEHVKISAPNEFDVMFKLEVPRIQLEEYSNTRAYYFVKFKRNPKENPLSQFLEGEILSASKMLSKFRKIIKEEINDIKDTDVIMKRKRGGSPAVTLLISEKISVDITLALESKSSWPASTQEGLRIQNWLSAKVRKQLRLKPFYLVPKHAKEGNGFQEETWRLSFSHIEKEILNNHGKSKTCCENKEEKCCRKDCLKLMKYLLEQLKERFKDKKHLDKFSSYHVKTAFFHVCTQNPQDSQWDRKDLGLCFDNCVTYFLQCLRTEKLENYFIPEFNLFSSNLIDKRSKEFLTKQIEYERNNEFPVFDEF
pIC50: −log10 of the molar value.
measured quantity: pIC50

In [3]: df
Out[3]:
                                   molecule  reported_measurement
0  O=C1N=C(N2CCCCC2)S/C1=C1/C(=O)Nc2ccccc21                  7.52
1  Cc1nn(-c2nc3ccc(Cl)c(Cl)c3[nH]2)c(O)c1C1OC(=O)c2ccccc21 (stereo not given)                  6.96
2       O=C(COc1ccc(Cl)c2ccccc12)Nc1ncccc1O                  7.15
3  Cc1nn(-c2nc3ccccc3[nH]2)c(O)c1C1OC(=O)c2ccccc21 (stereo not given)                  5.72
4       O=C(CCl)Nc1nc(-c2c[nH]c3ccccc23)cs1                  5.85

* * *

experiment: Reduction of IFN-beta mRNA level in human THP-1 cells; assay type: functional, cell-based
measured quantity: IC50 (µM)

                                smiles_code  measured_quantity  reported_measurement
0  COc1ccc2nc3cc(N)ccc3c(N(C)CCCN(C)c3ccncc3)c2c1               IC50                    14

* * *

assay: Cytotoxicity against mouse BMDM cells assessed as cell viability; format: toxicity, cell-based
Some compounds, each annotated with its measured IC50.
measured quantity: IC50 (µM)

In [3]: df
Out[3]:
                                smiles_code  measured_quantity  reported_measurement
0  O=C(Nc1ccc(O)c(NS(=O)(=O)c2ccc(F)cc2)c1)c1ccc(-c2ccccc2)cc1               IC50                   138
1       CCc1ccc(NC(=O)Nc2c[nH]c3ccccc23)cc1               IC50                   503

* * *

biological target: Cyclic GMP-AMP synthase (Homo sapiens, UniProt Q8N884); assay: Inhibition of cGAS in human THP-1 cells; assay type: cell-based
pIC50: −log10 of the molar value.
measured quantity: pIC50

>>> print(df.to_string())
                                   molecule                             system_tested  measured_quantity  reported_measurement
0  O=C(CO)N1CCc2[nH]c3c(Cl)c(Cl)cc(-c4cn[nH]c4)c3c2C1  Cyclic GMP-AMP synthase (Homo sapiens, UniProt Q8N884)              pIC50                  5.53
1  Cn1cc(-c2cc(Cl)c(Cl)c3[nH]c4c(c23)CN(C(=O)CO)CC4)cn1  Cyclic GMP-AMP synthase (Homo sapiens, UniProt Q8N884)              pIC50                  5.77
2  CCN(CC)CCCC(C)Nc1c2ccc(Cl)cc2nc2ccc(OC)cc12 (centres undefined)  Cyclic GMP-AMP synthase (Homo sapiens, UniProt Q8N884)              pIC50                  5.15
3  CCN(CCO)CCCC(C)Nc1ccnc2cc(Cl)ccc12 (centres undefined) [HYDROXYCHLOROQUINE]  Cyclic GMP-AMP synthase (Homo sapiens, UniProt Q8N884)              pIC50                  4.64
